Taken from a melting point compilation (Tetko et al.; mined from patent text by program, amines drawn as free bases though some values may be those of a salt).

QUANTITY MEASURED: melting point

In [3]: df
Out[3]:
                                    compound  measured_result
 0  NS(=O)(=O)c1cc(NC(=O)c2cnn3c(C(F)F)cc(-c4ccc(C(F)(F)F)cc4)nc23)c(Cl)s1           298 °C
 1  COC(=O)CC(C)NC(=O)c1ccc(N2CCN(c3ccncc3)CC2)cc1 (stereo not given)    130 to 132 °C
 2                      Sc1nnc2c3ccccc3cnn12    270 to 280 °C
 3      CCCCOc1c2ccccc2nc2c1c(C)nn2-c1ccccn1      59 to 61 °C
 4                COC(=O)c1nn(-c2cccnc2)cc1N    102 to 108 °C
 5  Clc1cc(Cl)c(Oc2nc(Oc3c(Cl)cc(Cl)c(Cl)c3Cl)nc(Oc3c(Cl)cc(Cl)c(Cl)c3Cl)n2)c(Cl)c1Cl    165 to 168 °C
 6    CCn1cc(C(=O)O)c(=O)cc1-c1ccc2c(c1)OCO2    269 to 270 °C
 7  COc1cccc(N(CCN2CCC(C(=O)c3ccc(F)cc3)CC2)C(=O)c2cccc(N)c2)c1    141 to 142 °C
 8  COC(=O)[C@H](c1ccccc1Cl)N1CCc2sc(OC(=O)c3cccnc3)cc2C1      92 to 94 °C
 9  CCN(CCO)CC(C)N1c2ccccc2Sc2ccc(C(=S)NCc3ccccc3)cc21 (racemic)           154 °C
10         COC(=O)CC(=O)c1cc(CN2CCOCC2)sc1Cl      67 to 68 °C
11            COc1ccc(SC#N)c([N+](=O)[O-])c1    127 to 128 °C
12  CCOC(=O)c1cnn(C)c1C(=O)Nc1ccn2nc(N(C)C)nc2c1    193 to 195 °C
13  COC(=O)Nc1nc(-c2ccccc2)c(-c2nc3ccccc3c(=O)n2-c2ccc(OC)cc2)s1    272 to 274 °C
14                           CN1CNC(=O)NC1=O    252 to 254 °C
15                   O=c1[nH]nc(Br)c2ccccc12    268 to 271 °C
16                CCOC(=O)c1cc2cc(C#N)ccc2s1    138 to 139 °C
17  COc1ccc2[nH]c(C(C)C)c(C=C3SC(=S)N(CC(=O)O)C3=O)c2c1    255 to 260 °C
18    CNC(=O)/C(=N/OC)c1ccccc1COc1cccc(OC)n1      81 to 82 °C
19                  Cc1cccc(-c2ccc(Cl)nn2)c1    112 to 113 °C
20  C[C@H](CN1CC(F)C1)NC(=O)c1c[nH]c2ncc(-c3nn(C)c4cc(Cl)ccc34)nc12    182 to 185 °C
21  COCCOc1cc2ncnc(NC3=CC(=O)C(Oc4ccccc4C)=CC3=O)c2cc1OC    134 to 137 °C
22  CCCCCCCCCCCC(OO)OOC(CCCCCCCCCCC)OO (stereo not given)      56 to 58 °C
23  CC(C)(C)OC(=O)C=Cc1ccc(NC(=O)C=C2CC(C(=O)O)Nc3ccccc32)cc1 (racemic)           140 °C
24  CCOC(=O)CC(=O)c1cc(O)c(O)c([N+](=O)[O-])c1    136 to 137 °C
25                        Cc1ccc(C)c(OCCO)c1      45 to 48 °C
26  O=S(=O)(NCCO)c1cccc(-c2cc(-c3nc(-c4ccc(C(F)(F)F)cc4)cc(C(F)(F)F)n3)ccn2)c1           192 °C
27  Cc1nn(-c2ccccn2)c2ncc(C(=O)c3ccccc3)c(Cl)c12    177 to 178 °C
28  N#Cc1cccc2c1C(=O)C(OCc1ccccc1)=C(OCc1ccccc1)C2=O    118 to 121 °C
29  CNC(=O)[C@H]1CN(c2ccc3c(c2)oc(=O)n3C)C(=O)O1    304 to 306 °C
30  O=C(Nc1ccc2cc(CN3CCCCCC3)cnc2c1)c1ccc(-c2ccc(Cl)cc2)cc1           204 °C
31  CC1Cc2c(N=C3OC(=O)C4=C3CCCC4)ccc(Cl)c2O1 (stereo not given)    125 to 127 °C
32  CC(C)(C)C(NC(=O)c1ccc(Cl)cc1)NC(=NC#N)Nc1c(F)cccc1F (stereo not given)    211 to 213 °C
33  CC(=O)N1CCC(c2nc3n(C4CCCC4)[nH]c(C)c-3c(=O)n2)CC1    176 to 178 °C
34  O=C(C(=O)c1ccc(Oc2ccc(Br)cc2)cc1)c1ccccc1      85 to 86 °C
35  COc1cccc2nc(-c3ccc(OCCNC(C)C)c(-c4ccc(S(C)(=O)=O)cc4)n3)[nH]c(=O)c12    222 to 223 °C
36  Cn1ncc(NCCCN2CCC(c3noc4cc(F)ccc34)CC2)cc1=O    163 to 165 °C
37     C(=Cc1ccc2c(n1)[nH]c1ccccc12)c1ccccc1         > 220 °C
38  C1=C(CCc2ccccc2)CCN(Cc2c[nH]c3ccccc23)C1    138 to 140 °C
39  CC1(CF)C=C(C(=O)NCCC#N)c2cc([N+](=O)[O-])ccc2O1 (stereo not given)    165 to 167 °C
